Target: DP receptor (Homo sapiens, UniProt Q13258)
Construct: the human cell line LS174T, which expresses the endogenous DP receptor; endogenous in cells
Sequence (Q13258 1-359): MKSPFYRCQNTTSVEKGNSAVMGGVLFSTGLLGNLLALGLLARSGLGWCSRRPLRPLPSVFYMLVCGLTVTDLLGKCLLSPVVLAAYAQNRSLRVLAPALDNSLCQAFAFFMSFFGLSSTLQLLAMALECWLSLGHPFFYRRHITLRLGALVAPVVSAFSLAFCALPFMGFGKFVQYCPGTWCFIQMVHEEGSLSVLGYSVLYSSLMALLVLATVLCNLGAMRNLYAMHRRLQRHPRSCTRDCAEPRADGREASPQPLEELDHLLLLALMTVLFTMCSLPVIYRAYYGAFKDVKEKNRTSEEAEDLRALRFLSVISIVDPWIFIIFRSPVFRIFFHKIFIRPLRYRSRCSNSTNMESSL
Assay: SPA cAMP assay in human LS174 T cells (human DP functional assay)
Conditions: inhibition of PGD2 (15 nM final) stimulated cAMP, LS174T cells expressing endogenous DP receptor
Counter-ions that a name gives are not always drawn.
Reported IC50 values for a set of molecules

- molecule: "COC(=O)C1(c2cccc(-c3cc(NCCc4ccc(OC(F)(F)F)cc4)nc(OC)n3)c2)CCOCC1"
  bound_operator: "="
  IC50 [nM]: 70
- molecule: "COc1ccc(CCNc2cc(-c3cc4ccccc4s3)nc(OC)n2)cc1"
  bound_operator: "="
  IC50 [nM]: 5.1
- molecule: "COc1ccc(CCNc2cc(-c3cccc(OC)c3)nc(N(C)C)n2)cc1 [Example 19, hydrochloride]"
  bound_operator: "="
  IC50 [nM]: 4650
- molecule: "COc1ccc(CCNc2cc(-c3cccc(-c4nnc(C)[nH]4)c3)nc(OC)n2)cc1"
  bound_operator: "="
  IC50 [nM]: 3.7
- molecule: "COc1nc(NCCc2ccc(Cl)cc2Cl)cc(-c2cccc(C(C)(C)C(=O)NC3CCOCC3)c2)n1"
  bound_operator: "="
  IC50 [nM]: 278
- molecule: "COc1nc(NCCc2ccc(Cl)cc2Cl)cc(-c2cccc(C3(C(=O)NS(C)(=O)=O)CCOCC3)c2)n1"
  bound_operator: "<"
  IC50 [nM]: 1
- molecule: "COc1nc(NCCc2ccc(Cl)cc2Cl)cc(-c2ccc(C(=O)O)s2)n1"
  bound_operator: "="
  IC50 [nM]: 0.16
- molecule: "COc1ccc(CCNc2cc(-c3ccccc3O)nc(OC)n2)cc1 [Example 35(r)]"
  bound_operator: "="
  IC50 [nM]: 17

Values compiled from patent US7517889B2.
